All values here come from patent US8828908B2.

Tested on: Alopecurus myosuroides (ALOMY)
assay.summary: Example A post-emergence herbicidal glasshouse test
Format: in vivo
condition.details: 312 h, evaluated after 13 days, 100=total damage to plant, 0=no damage
Experimental: Seeds of a variety of test species were sown in standard soil in pots. […] After 13 days for pre and post-emergence, the test was evaluated (100=total damage to plant; 0=no damage to plant). […]
metric.name: pest or weed control at 250 g/ha (%)
One number for each entry, in %.

Below: 2 compounds and their reported pest or weed control at 250 g/ha.
> print(dat)
                                   compound  numeric.value
1  CCc1ccc(-c2cccc(Cl)c2)cc1C1=C(O)[C@H]2CC[C@H](C2)C1=O (single isomer, unassigned) [Compound T38]             20
2  CCc1ccc(-c2ccc(Cl)cc2F)cc1C1=C(O)[C@H]2CC[C@H](C2)C1=O (single isomer, unassigned) [Compound T41]             60

Please report pest or weed control at 250 g/ha for every entry that follows.
1. Cc1ccc(-c2ccccc2C(F)(F)F)cc1C1=C(O)[C@H]2CC[C@H](C2)C1=O (single isomer, unassigned) [Compound T21]
2. Cc1ccc(-c2cccc(C(F)(F)F)c2)cc1C1=C(O)[C@H]2CC[C@H](C2)C1=O (single isomer, unassigned) [Compound T22]
3. COc1ccc(-c2ccc(Cl)cc2Cl)cc1C1=C(O)[C@H]2CC[C@H](C2)C1=O [Compound T53]
4. CCc1ccc(-c2ccc(Cl)cc2Cl)cc1C1=C(O)[C@H]2C=C[C@H](CC2)C1=O [Compound T56]
5. CCc1cc(-c2ccc(Cl)cc2)ccc1C1=C(O)[C@H]2CC[C@H](C2)C1=O [Compound T59]

Found:
0
0
0
60
100

Please report pest or weed control at 250 g/ha for every entry that follows.
1. Cc1ccc(-c2cc(F)cc(Cl)c2)cc1C1=C(O)[C@H]2CC[C@H](C2)C1=O (single isomer, unassigned) [Compound T47]
2. CCc1cc(-c2ccc(C)cc2)cc(CC)c1C1=C(O)[C@H]2CC[C@H](C2)C1=O [Compound T63]

Found:
0
70

Please report pest or weed control at 250 g/ha for every entry that follows.
1. Cc1ccc(-c2ccc(C)c(C3=C(O)[C@H]4CC[C@H](C4)C3=O)c2)cc1Cl (single isomer, unassigned) [Compound T49]
2. CCc1ccc(-c2cnc(Cl)cc2C)cc1C1=C(O)[C@H]2CC[C@H](C2)C1=O (single isomer, unassigned) [Compound T77]
3. CCOc1ccc(-c2ccc(Cl)cc2)cc1C1=C(O)[C@H]2CC[C@H](C2)C1=O [Compound T52]

Found:
1. 0
2. 30
3. 40

Please report pest or weed control at 250 g/ha for every entry that follows.
1. CCc1ccc(-c2ccc(Cl)c(F)c2)cc1C1=C(O)[C@H]2CC[C@H](C2)C1=O (single isomer, unassigned) [Compound T36]
2. CCc1ccc(-c2ccc(Cl)cc2Cl)cc1C1=C(O)[C@H]2CC[C@H](C2)C1=O [Compound T44]
3. CCc1ccc(-c2ccc(Cl)cc2Cl)cc1C1=C(OC(C)=O)[C@H]2CC[C@H](C2)C1=O (single isomer, unassigned) [Compound P7]
4. CCc1ccc(-c2ccc(Cl)cc2C)cc1C1=C(O)[C@H]2CC[C@H](C2)C1=O (single isomer, unassigned) [Compound T33]

Found:
1: 90; 2: 90; 3: 90; 4: 60
